system: SK-MEL-2 melanoma; test: NCI-60 one-dose screen, 48 h (100 = growth as untreated, 0 = no growth, -100 = all killed); settings: 10 µM unless noted
The panel holds about 83,000 compounds, 20% with a hit somewhere; the sample as a whole holds those more often.
Exercise: state measured growth for each of the compounds provided.
Answers are plain numbers, in %.

CC1=C(C#N)C(C)(C)C(C#N)=C(C)N1: 109

Hey, quick one: what's growth for each of these?
1. COc1ccc(/C=C/C(=O)c2ccc(NC(=O)CN3CCN(c4cc5c(cc4F)c(=O)c(C(=O)O)cn5C4CC4)CC3)cc2)cc1
2. CC(=O)Nc1ccc(S(=O)(=O)N2C(=O)CCC2C(=O)Nc2ccccc2)cc1 (stereo unspecified)

[117, 43.9]

Hey, quick one: what's growth for each of these?
1. Cc1oc2nc[nH]c(=O)c2c1C(=O)/C=C/c1ccc(Cl)cc1
2. Cc1ccc2nc(-c3c(CCCO)noc3N)[nH]c(=O)c2c1

[55.7, 105]

Hey, quick one: what's growth for each of these?
1. C=CCN=C1NC(=O)/C(=C/c2cc(C(C)(C)C)c(O)c(C(C)(C)C)c2)S1
2. CN=S(=O)(NC(=O)c1ccc(Cl)cc1Cl)c1ccc(Br)s1 (stereo unspecified)
3. C=CCOc1ccc(/C(O)=C2\C(=O)C(=O)N(c3nccs3)C2c2ccccc2F)cc1 (stereo unspecified)
4. O=C(CSc1nc(-c2ccc(Cl)cc2)cn1-c1ccc(Cl)cc1)c1ccc(Br)cc1

[40.1, 108, 54, 87]

----------
tested on: MALME-3M melanoma; assay: NCI-60 one-dose screen, 48 h (100 = growth as untreated, 0 = no growth, -100 = all killed); conditions: 10 µM unless noted
Compounds without any hit were thinned out: in the full panel of roughly 83,000, 20% have a hit.
Exercise: state measured growth for each of the compounds provided.
One number for each entry, in %.

# annotated cases, reported growth shown
Cc1oc2nc[nH]c(=O)c2c1C(=O)/C=C/c1ccc(Cl)cc1Cl: 99.9
O=C(CNc1ccc(Cl)cc1)Nc1ccc(-c2nc3ccccc3s2)cc1: -30.5
Cc1nn(-c2ccc(Cl)cc2)c(=O)n1CCOc1ccccc1Cl: 103

Hey, quick one: what's growth for each of these?
1. Clc1ccc(-c2nc(-c3ccco3)cn3ccnc23)cc1
2. CCN(C(=O)c1cc2ccccc2[nH]1)[C@H]1CCC[C@@H](NCc2ccc(OC)cc2)C1
3. Cc1ccc(S(=O)(=O)OC2COCOC2C(OS(=O)(=O)c2ccc(C)cc2)C2OCOCC2OS(=O)(=O)c2ccc(C)cc2)cc1 (centres undefined)

77
92.3
98.1

Hey, quick one: what's growth for each of these?
1. O=C(CN1CCN(c2cc3c(cc2F)c(=O)c(C(=O)O)cn3C2CC2)CC1)Nc1ccc(C(=O)/C=C/c2ccccc2)cc1
2. COc1ccc(/C=C/C(=O)OCC(=O)NNC(=O)c2ccccc2)cc1OC
3. CCCCNC(=O)NS(=O)(=O)c1ccc(N2N=C(c3ccc(C)cc3C)CC2c2ccc(OC)cc2)cc1 (centres undefined)

[51, 105, 108]

----------
test system: 786-0 renal; experiment: NCI-60 one-dose screen, 48 h; details: 10 µM unless noted
This is part of a sample that, as a whole, favours compounds with a hit. Of some 83,000 tested, about 20% had one in any assay. Active and inactive are the calls of the source. How the source made its calls: active means growth percent below 10; inactive means the rest.
Log the outcome using a class from y (active), n (inactive)

Examples with answers:
COC1=CC(c2ccc[nH]2)=N/C1=C\c1[nH]c(C)c(C(=O)CCCCC(=O)Oc2ccc3c(c2)CCC2C3CC[C@]3(C)[C@@H](O)CC[C@@H]23)c1C (stereo not given in full): n
CCN1C(=O)N(CC)C2Nn3c(s/c(=C4\C(=O)N(C5CCCC5)c5ccccc54)c3=O)=NC21 (stereo not given): n
NC(=O)c1c(NC(=O)c2ccc(OCC3CCCO3)cc2)sc2c1CCCC2 (stereo not given): n
CCc1c(C(=O)Nc2ccc3ccccc3c2)[nH]c(C)c1C(C)=O: n

Answer briefly: the call reported for CCCCNc1nnc(-c2cc(-c3cc4ccccc4o3)nn2-c2ccccc2)o1 in this assay. n

Answer briefly: the call reported for Nc1c(C(=O)Nc2cccc(Cl)c2Cl)sc2nc3c(cc12)C(=O)CCC3 in this assay. n

Answer briefly: the call reported for C=C1C(=O)O[C@H]2[C@H]1CC/C(COC(=O)NCc1ccc(OC)cc1)=C\CC[C@@]1(C)O[C@@H]21 in this assay. n

----------
Exercise: state measured growth for each of the compounds provided.
test system: HOP-92 NSCLC; assay: NCI-60 one-dose screen, 48 h (100 = growth as untreated, 0 = no growth, -100 = all killed); conditions: 10 µM unless noted
About 83,000 compounds went through this panel and 20% of them were active in at least one assay; those are over-represented in the sample as a whole.
Numbers only, in %.

# annotated cases, reported growth shown
O=S=Nc1ccc([N+](=O)[O-])cc1: 107
Nc1c(C(=O)Nc2cccc(C(F)(F)F)c2)sc2nc3c(cc12)C(O)CCC3 (stereo not given): 67.2
Nc1c(C(=O)Nc2cccc([N+](=O)[O-])c2)sc2nc3c(cc12)C(O)CCC3 (stereo not given): 72.1
N#Cc1ncc(-c2ccc(F)c(F)c2F)c(NC2CCCCCC2)n1: 65.1
COc1cc(OC)c(C(=O)/C=C/c2ccc(C(F)(F)F)cc2)c(OC)c1: 96.8
CCCn1c(=S)sc2c(Cl)nc(C)nc21: 99.3
Cc1oc2nc[nH]c(=O)c2c1C(=O)/C=C/c1ccc(Cl)cc1Cl: 95.5
COc1ccccc1CNCCCN1C(=O)c2ccc3c4c(ccc(c24)C1=O)C(=O)N(CCCNCCCCNCCCCN)C3=O: -6.2

Hey, quick one: what's growth for each of these?
1. CC(C)(C)c1cc(-c2nc3ccc(N4CCN(CCO)CC4)cc3[nH]2)cc(C(C)(C)C)c1O
2. COc1ccc(C(=O)c2cc(OC)c(OC)c(OC)c2)cc1/C=C/C(=O)c1ccc(O)cc1
3. Cc1ccc(S(=O)(=O)OC2COCOC2C(OS(=O)(=O)c2ccc(C)cc2)C2OCOCC2OS(=O)(=O)c2ccc(C)cc2)cc1 (stereo not given)
4. Cc1cccc(NC(=O)c2sc3nc4c(cc3c2N)CCC4)c1C

1. 45.2
2. 42.8
3. 104
4. 17.7

Hey, quick one: what's growth for each of these?
1. O=C1OC(c2ccccc2)=N/C1=C\c1ccc([N+](=O)[O-])cc1
2. CC(C)[C@H](CO)Nc1nc(Nc2ccc(C(=O)NCCNS(=O)(=O)c3cccc4c(N(C)C)cccc34)c(Cl)c2)c2ncn(C(C)C)c2n1
3. O=S(=O)(O)CCl

87.1
-9.2
106

Hey, quick one: what's growth for each of these?
1. C=C1C(=O)O[C@H]2[C@H]1CC/C(Cn1cc(-c3ccc(N)cc3)nn1)=C\CC[C@@]1(C)O[C@@H]21
2. O=C(CN1CCN(c2cc3c(cc2F)c(=O)c(C(=O)O)cn3C2CC2)CC1)Nc1ccc(C(=O)/C=C/c2ccc(Cl)cc2)cc1
3. CCN(CC)S(=O)(=O)c1ccc2[nH]c(=O)cc(C(=O)Nc3ccc(OC)cc3OC)c2c1
4. CCO/C=N/NC(=O)c1ccncc1

[-44.3, 95.8, 77.8, 104]

Notebook entry, HOP-92 NSCLC assay: growth of COc1cccc(/C=C/C(=O)c2sc(Nc3ccc(O)cc3)nc2C)c1 = ? 107

----------
Exercise: state measured growth for each of the molecules provided.
system: M14 melanoma; assay: NCI-60 one-dose screen, 48 h (100 = growth as untreated, 0 = no growth, -100 = all killed); conditions: 10 µM unless noted
The panel holds about 83,000 compounds, 20% with a hit somewhere; the sample as a whole holds those more often.
Answers are plain numbers, in %.

O=c1[nH]c(CN2CCN(c3ccccc3F)CC2)nc2sc3c(c12)CCC3: 108
COc1ccc(C(=O)c2cc(OC)c(OC)c(OC)c2)cc1/C=C/C(=O)c1ccc(O)cc1: 15.8
COc1ccc(S(=O)(=O)N2CCN(c3cc4c(cc3F)c(=O)c(C(=O)O)cn4C3CC3)CC2)c(OC)c1: 92.5
COc1ccc(C(=O)/C=C/c2cccc([N+](=O)[O-])c2)c(OC)c1: 30.6
CCOC(=O)CC/C(C)=N\Nc1ccc([N+](=O)[O-])cc1: 29.3

Hey, quick one: what's growth for each of these?
1. O=c1[nH]c(-c2cn(-c3ccc(Cl)cc3)nn2)nc2ccccc12
2. O=C(Nc1ccc(F)cc1)c1cc([N+](=O)[O-])ccc1O
3. COC1=CC(c2ccc[nH]2)=N/C1=C\c1[nH]c(C)c(C(=O)CCC(=O)Oc2ccc3c(c2)CCC2C3CC[C@]3(C)[C@@H](O)CC[C@@H]23)c1C (stereo not given in full)
4. NC(=O)c1cccc(N2Cc3ccccc3OC3=C2C(=O)c2c(O)ccc(O)c2C3=O)c1

[91.4, 75.7, -50.8, -81]
